Sourced from ChEMBL document CHEMBL6153154

Molecular target: N-formyl peptide receptor 2 (Homo sapiens)
Sequence (P25090 whole entry): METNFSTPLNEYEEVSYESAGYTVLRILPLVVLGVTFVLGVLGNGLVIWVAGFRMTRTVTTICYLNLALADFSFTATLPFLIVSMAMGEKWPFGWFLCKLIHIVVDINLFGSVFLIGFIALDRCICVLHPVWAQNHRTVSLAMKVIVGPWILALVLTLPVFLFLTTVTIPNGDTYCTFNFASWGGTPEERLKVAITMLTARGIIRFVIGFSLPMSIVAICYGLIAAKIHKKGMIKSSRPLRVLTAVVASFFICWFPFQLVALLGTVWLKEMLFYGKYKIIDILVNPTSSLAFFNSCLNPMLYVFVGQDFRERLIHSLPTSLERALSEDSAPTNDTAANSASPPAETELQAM
Test: Agonist activity at human FPR2 expressed in CHO cells assessed as forskolin-induced cAMP level incubated for 30 mins in presence of IBMX by HTRF HiRange cAMP assay
pEC50: −log10 of the molar value.

>  <cpd-smiles>
O=C(Nc1ccc(C(F)(F)F)cc1F)N[C@@H]1CCN(c2ccc(C3(CN4CCCC4=O)CC3)c(F)c2F)C1=O

>  <system>
N-formyl peptide receptor 2 (Homo sapiens)

>  <pEC50>
9.64

$$$$
>  <cpd-smiles>
CP(C)(=O)CC1(c2ccc(N3CC[C@@H](NC(=O)Nc4ccc(C(F)(F)F)cc4F)C3=O)c(F)c2F)CCCC1

>  <system>
N-formyl peptide receptor 2 (Homo sapiens)

>  <pEC50>
9.32

$$$$
>  <cpd-smiles>
CC(=O)NCC1(c2ccc(N3CC[C@@H](NC(=O)Nc4ccc(Cl)cc4F)C3=O)c(F)c2F)CC1

>  <system>
N-formyl peptide receptor 2 (Homo sapiens)

>  <pEC50>
9.39

$$$$
>  <cpd-smiles>
O=C(Nc1ccc(Cl)cc1F)N[C@@H]1CCN(c2ccc(C3(CN4CCCC4=O)CC3)c(F)c2F)C1=O

>  <system>
N-formyl peptide receptor 2 (Homo sapiens)

>  <pEC50>
9.49

$$$$
>  <cpd-smiles>
CC(C)S(=O)(=O)CC1(c2ccc(N3CC[C@@H](NC(=O)Nc4ccc(Cl)cc4F)C3=O)c(F)c2F)CC1

>  <system>
N-formyl peptide receptor 2 (Homo sapiens)

>  <pEC50>
9.31

$$$$
>  <cpd-smiles>
CC(=O)N(C)CC1(c2ccc(N3CC[C@@H](NC(=O)Nc4ccc(C(F)(F)F)cc4F)C3=O)c(F)c2F)CC1

>  <system>
N-formyl peptide receptor 2 (Homo sapiens)

>  <pEC50>
10.00

$$$$
